test-method-notes: Blood-to-plasma ratio in mouse blood
Format: in vitro ADME
test-parameters: whole blood, 0.1 μg/ml, overall value, read-out: blood-to-plasma ratio (B/P)
Experimental: At different time points (0, 30 and 60 min) aliquots (50 μl) were collected for blood analysis, and an additional sample (120 μl) was transferred to a microcentrifuge tube and centrifuged at 4,000g for 10 min at 4°C to separate 50 μl plasma for analysis. The whole blood and plasma samples were further processed by SPE as described above. The analyte peak area ratios were used to calculate the blood-to-plasma (B/P) ratio using Equation (4). […]
quantity-measured: blood plasma ratio at 0.1 μg/ml
Just the number, please.

Incoming: Entry under review: O=c1cc(N2CCOCC2)oc2c(-c3ccc4c(c3)OCCO4)csc12 [SF2523] . Reported blood plasma ratio at 0.1 μg/ml?
Outgoing: 0.88
